- tested.on: EGFR L858R (Homo sapiens, UniProt P00533, L858R)
- Sequence (P00533 25-1210 L858R): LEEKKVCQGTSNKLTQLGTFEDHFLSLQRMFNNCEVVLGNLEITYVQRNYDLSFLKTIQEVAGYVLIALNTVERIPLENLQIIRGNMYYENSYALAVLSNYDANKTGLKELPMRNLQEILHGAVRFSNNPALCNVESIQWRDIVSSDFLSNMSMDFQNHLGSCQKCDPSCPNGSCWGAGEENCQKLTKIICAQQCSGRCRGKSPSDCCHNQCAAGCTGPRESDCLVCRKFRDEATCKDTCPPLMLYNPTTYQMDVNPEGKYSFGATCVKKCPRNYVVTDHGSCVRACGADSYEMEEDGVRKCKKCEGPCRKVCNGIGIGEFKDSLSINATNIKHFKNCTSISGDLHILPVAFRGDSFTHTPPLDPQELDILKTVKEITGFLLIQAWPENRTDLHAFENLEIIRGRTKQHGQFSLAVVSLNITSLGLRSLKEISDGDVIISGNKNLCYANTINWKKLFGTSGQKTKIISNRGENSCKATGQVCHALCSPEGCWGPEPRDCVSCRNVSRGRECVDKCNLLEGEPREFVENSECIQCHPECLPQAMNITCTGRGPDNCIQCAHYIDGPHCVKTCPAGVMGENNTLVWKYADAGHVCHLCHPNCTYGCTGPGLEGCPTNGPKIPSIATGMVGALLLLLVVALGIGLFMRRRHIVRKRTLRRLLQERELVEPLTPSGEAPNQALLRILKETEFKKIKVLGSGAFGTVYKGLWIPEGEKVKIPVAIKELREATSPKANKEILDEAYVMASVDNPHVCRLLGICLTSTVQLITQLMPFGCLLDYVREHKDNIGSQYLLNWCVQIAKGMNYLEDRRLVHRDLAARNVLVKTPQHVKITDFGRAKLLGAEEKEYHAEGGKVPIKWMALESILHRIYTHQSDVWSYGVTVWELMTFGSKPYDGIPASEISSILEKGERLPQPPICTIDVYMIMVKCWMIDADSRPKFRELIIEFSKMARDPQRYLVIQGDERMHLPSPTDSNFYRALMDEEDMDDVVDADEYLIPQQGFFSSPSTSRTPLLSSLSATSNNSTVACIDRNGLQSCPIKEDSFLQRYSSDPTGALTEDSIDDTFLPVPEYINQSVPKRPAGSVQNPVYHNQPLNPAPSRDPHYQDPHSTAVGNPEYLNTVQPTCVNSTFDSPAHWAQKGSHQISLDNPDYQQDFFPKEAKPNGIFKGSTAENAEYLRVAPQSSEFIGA
- method: HTRF-based EGFR biochemical assay, L858R enzyme
- test.settings: L858R 0.1 nM enzyme, 100 μM ATP, 30 min preincubation, read-out: LR enzyme IC50
- Procedure: EGFR biochemical activity measurements were carried out using the homogeneous time-resolved fluorescence (HTRF) assay (Cisbio). […] Reactions were quenched with the addition of 10 μL of phospho-tyrosine antibody-Europium(III) cryptate (1-to-180 volume ratio) and Streptavidin-XL665 (46.7 nM) in EDTA-containing detection buffer, then incubated at room temperature for 1 hour, and read with a PHERAstar plate reader (excitation=337 nm, emission=620 nm and 665 nm). […]
pIC50: −log10 of the molar value.
property: pIC50

[
  {
    "molecule": "CN1CCN(c2ccc(-c3ccc4ncn(C(C(=O)Nc5nccs5)c5ncn6c5CCC6)c(=O)c4c3)cc2)CC1 (centres unmarked)",
    "tested.on": "EGFR L858R (Homo sapiens, UniProt P00533, L858R)",
    "pIC50": "< 8.30"
  },
  {
    "molecule": "CN1CCC(c2ccc(-c3ccc4ncn(C(C(=O)Nc5nccs5)c5ncn6c5CCC6)c(=O)c4c3)cc2)CC1 (centres unmarked)",
    "tested.on": "EGFR L858R (Homo sapiens, UniProt P00533, L858R)",
    "pIC50": "> 9.00"
  },
  {
    "molecule": "CN1CCC(c2ccc(-c3cc(F)c4c(=O)n(C(C(=O)Nc5nccs5)c5ncn6c5CCC6)ccc4c3)cc2)CC1 (centres unmarked)",
    "tested.on": "EGFR L858R (Homo sapiens, UniProt P00533, L858R)",
    "pIC50": "> 8.30"
  },
  {
    "molecule": "CN1CCC(c2ccc(-c3cc4ccn(C(C(=O)Nc5nccs5)c5ncn6c5CCC6)c(=O)c4s3)cc2)CC1 (centres unmarked)",
    "tested.on": "EGFR L858R (Homo sapiens, UniProt P00533, L858R)",
    "pIC50": "> 8.30"
  },
  {
    "molecule": "CN1CCC(c2ccc(-c3ccc4c(c3)C(=O)N(C(C(=O)Nc3nccs3)c3ncn5c3CCC5)CO4)cc2)CC1 (centres unmarked)",
    "tested.on": "EGFR L858R (Homo sapiens, UniProt P00533, L858R)",
    "pIC50": "> 8.30"
  }
]

Query the reported pIC50 for EGFR L858R (Homo sapiens, UniProt P00533, L858R); item: CN1CCC(c2ccc(-c3ccc4ncn(C(C(=O)Nc5nccs5)c5ncn6c5CCC6)c(=O)c4c3F)cc2)CC1 (centres unmarked)
> 8.30

Provide the documented pIC50 with EGFR L858R (Homo sapiens, UniProt P00533, L858R) as the system for CN1CCC(c2ccc(-c3cc4ccn(C(C(=O)Nc5nccs5)c5ncn6c5C[C@@H](F)C6)c(=O)c4s3)cc2)CC1 (some centres unmarked)
> 8.30

Lab note: need pIC50 for CN1CCC(c2ccc(-c3cc(F)c4c(=O)n(C(C(=O)Nc5nccs5)c5ncn6c5C[C@@H](F)C6)ccc4c3)cc2)CC1 (some centres unmarked) on EGFR L858R (Homo sapiens, UniProt P00533, L858R), anyone have it?
> 8.30
